test system: N[C@@H](Cc1ccc(O)c(O)c1)C(=O)O; experiment: fluorometric H2O2 production assay (peroxidase-coupled); format: biochemical, Bombyx mori; settings: O2 co-substrate; PBS; PLP cofactor; aldehyde synthase (H2O2-producing) activity; parentheses are 95% confidence interval
For each of the substances below, state its Km.

Give the measured Km of B. mori DHPAAS (Bombyx mori; F79Y/N192H/Y80F) .
27.6 (17.1–42.8) µM

Entry B. mori DHPAAS (Bombyx mori; F79Y/Y80F) : reported Km = ?
62.3 (49.5–78.5) µM

Return reported Km; argument: B. mori DHPAAS (Bombyx mori)
41.7 (36.6–47.3) µM

Fill blank: measured Km of the substance B. mori DHPAAS (Bombyx mori; N192H) is ____.
36.5 (32.8–40.5) µM
